# target desc: T1, human TREM2 (human, UniProt Q9NZC2 19-174, limits assumed)
# T1 sequence: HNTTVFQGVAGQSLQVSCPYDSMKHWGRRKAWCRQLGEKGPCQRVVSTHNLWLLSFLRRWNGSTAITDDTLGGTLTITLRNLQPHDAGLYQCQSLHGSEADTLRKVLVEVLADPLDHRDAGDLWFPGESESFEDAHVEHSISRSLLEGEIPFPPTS
# measurement notes: yeast-displayed Fab FACS, 2nd screen 100 nM
binding signal fold over 6E7 parental overview
Kindly provide the numeric value in fold only, without the unit symbol.

Supply measured binding signal fold over 6E7 parental of V33 (Fab, V domains shown) VH: EVQLVQSGAEVKKPGESLKISCKGSGYSFTSYWIAWVRQMPGKGLEWMGIIYPGDSDTRYSPSFQGQVTISADKSISTAYLQWSSLKASDTAMYFCARQRTFYGDSSDYFDYWGQGTLVTVSS VL: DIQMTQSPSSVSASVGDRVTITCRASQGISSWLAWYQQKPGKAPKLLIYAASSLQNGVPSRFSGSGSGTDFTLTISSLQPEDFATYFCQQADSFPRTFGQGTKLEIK in your reply.
0.34

Supply measured binding signal fold over 6E7 parental of V56 (Fab, V domains shown) VH: EVQLVQSGAEVKKPGESLKISCKGSGYSFTSYWIAWVRQMPGKGLEWMGIIYPGDSDTRYQPSFQGQVTISADKSISTAYLQWSSLKASDTAMYFCARQRTFYYDSSDYFDYWGQGTLVTVSS VL: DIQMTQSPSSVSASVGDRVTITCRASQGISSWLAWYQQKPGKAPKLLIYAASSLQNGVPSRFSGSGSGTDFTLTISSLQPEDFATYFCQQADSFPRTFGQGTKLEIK in your reply.
0.59

Supply measured binding signal fold over 6E7 parental of V78 (Fab, V domains shown) VH: EVQLVQSGAEVKKPGESLKISCKGSGYRFTSYWIAWVRQMPGKGLEWMGIIYPGDSDTRYSPSFQGQVTISADKSISTAYLQWSSLKASDTAMYFCARQRTFYYDSSDYFDYWGQGTLVTVSS VL: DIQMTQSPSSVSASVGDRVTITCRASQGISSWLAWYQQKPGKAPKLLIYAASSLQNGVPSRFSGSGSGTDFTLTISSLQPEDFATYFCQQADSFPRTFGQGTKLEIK in your reply.
1.11
